- Tested on: T. forsythia
- run description: Twenty-four hour biofilm growth (crystal violet)
- Assay type: cell-based
- measurement setup: 5 μmol/ml
metric: biofilm growth: OD 630 nm at 24 hrs divided by OD of control (control = 1)

molecule	value
O[C@H]1[C@H](O)[C@@H](O)[C@H](O)[C@@H](O)[C@H]1O [Myo-Inositol]	0.6841
OC[C@@H](O)[C@@H](O[C@H]1O[C@H](CO)[C@H](O)[C@H](O)[C@H]1O)[C@H](O)[C@@H](O)CO [D-Lactitol, 4-O-α-D-galactopyranosyl-D-glucitol]	0.5843
OC[C@H]1O[C@@](O)(CO)[C@@H](O[C@H]2O[C@H](CO)[C@@H](O)[C@H](O)[C@H]2O)[C@@H]1O [D-Turanose]	0.8918

Lab note: next molecule to report on.
Per the records, this molecule ( CC(=O)N[C@H](C=O)[C@@H](O)[C@H](O)[C@H](O)CO [N-acetyl-D-mannosamine, 2-acetamido-2-deoxy-D-mannose] ) has biofilm growth: OD 630 nm at 24 hrs divided by OD of control (control = 1) equal to 0.6028

###

- System: A. viscosus
- run description: Twenty-four hour biofilm growth (crystal violet)
- Format: cell-based
- measurement setup: 10 μmol/ml
- Experimental: The increase in biofilm formation of the tested bacteria in response to selected saccharides (D-turanose, D-lactitol, myo-inositol, and N-acetyl-D-mannosamine) was investigated by setting up biofilm growth assays in a nutritionally rich medium (brain heart infusion broth (BHI), Oxoid), over 24 hours. […] Quantification of the stained biofilm was performed by measuring the absorbance at 630 nm using a Multiskan Ascent microplate reader (Thermo Scientific). […]
metric: biofilm growth: OD 630 nm at 24 hrs divided by OD of control (control = 1)
Give bare numbers.

// below: answered compounds
> print(dat)
                               query.smiles  tested.system   value
1  OC[C@@H](O)[C@@H](O[C@H]1O[C@H](CO)[C@H](O)[C@H](O)[C@H]1O)[C@H](O)[C@@H](O)CO    A. viscosus  0.7502
2  O[C@H]1[C@H](O)[C@@H](O)[C@H](O)[C@@H](O)[C@H]1O    A. viscosus  0.8735
3  OC[C@H]1O[C@@](O)(CO)[C@@H](O[C@H]2O[C@H](CO)[C@@H](O)[C@H](O)[C@H]2O)[C@@H]1O    A. viscosus  0.0920

Recorded result, "CC(=O)N[C@H](C=O)[C@@H](O)[C@H](O)[C@H](O)CO" , biofilm growth: OD 630 nm at 24 hrs divided by OD of control (control = 1): 0.9165

###

- Tested on: A. viscosus
- run description: Twenty-four hour biofilm growth (crystal violet)
- Type: cell-based
- measurement setup: 25 μmol/ml
- Protocol: The increase in biofilm formation of the tested bacteria in response to selected saccharides (D-turanose, D-lactitol, myo-inositol, and N-acetyl-D-mannosamine) was investigated by setting up biofilm growth assays in a nutritionally rich medium (brain heart infusion broth (BHI), Oxoid), over 24 hours. […] Quantification of the stained biofilm was performed by measuring the absorbance at 630 nm using a Multiskan Ascent microplate reader (Thermo Scientific). […]
Assign biofilm growth: OD 630 nm at 24 hrs divided by OD of control (control = 1) to each entry below.
One number for each entry.

Consider the reported biofilm growth: OD 630 nm at 24 hrs divided by OD of control (control = 1) for these compounds:
> print(dat)
                               query.smiles  tested.system   value
1  OC[C@H]1O[C@@](O)(CO)[C@@H](O[C@H]2O[C@H](CO)[C@@H](O)[C@H](O)[C@H]2O)[C@@H]1O    A. viscosus  0.0366
2  OC[C@@H](O)[C@@H](O[C@H]1O[C@H](CO)[C@H](O)[C@H](O)[C@H]1O)[C@H](O)[C@@H](O)CO    A. viscosus  0.9153
3  O[C@H]1[C@H](O)[C@@H](O)[C@H](O)[C@@H](O)[C@H]1O    A. viscosus  0.8167

Please turn your attention to the following entry.
The reported biofilm growth: OD 630 nm at 24 hrs divided by OD of control (control = 1) of the compound "CC(=O)N[C@H](C=O)[C@@H](O)[C@H](O)[C@H](O)CO" was 0.6492
